molecular target: T1, deglycosylated V domain of human CD33 (human, UniProt P20138 18-139, limits assumed, N-glycans removed by PNGase); experiment: SPR, Fab captured, 37C;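 note: biacore 8K surface plasmon resonance with Fabs held on an amine-coupled anti-Fab antibody surface, soluble monomeric CD33 domain injected as analyte, double-referenced 1:1 binding fit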
T1 construct: V domain deglycosylated by PNGase before testing; also called deglycosylated V CD33
QUANTITY KIND: kon (M⁻¹ s⁻¹)
The response must be a number in M⁻¹ s⁻¹ with no trailing unit.

# BINDER, QUANTITY KIND, QUANTITATIVE RESULT
records = [
    ("ADI-10177 Fab (Fab, V domains shown, Fab fragment; also called Ab2) VH: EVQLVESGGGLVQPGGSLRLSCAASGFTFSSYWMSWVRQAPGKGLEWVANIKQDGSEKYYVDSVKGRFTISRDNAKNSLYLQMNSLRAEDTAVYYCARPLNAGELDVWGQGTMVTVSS VL: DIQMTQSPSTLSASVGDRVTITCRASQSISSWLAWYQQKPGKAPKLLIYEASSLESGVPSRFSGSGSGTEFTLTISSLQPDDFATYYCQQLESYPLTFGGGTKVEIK", "kon", "1.88e+06"),
    ("ADI-11830 Fab (Fab, V domains shown, Fab fragment; also called Ab9) VH: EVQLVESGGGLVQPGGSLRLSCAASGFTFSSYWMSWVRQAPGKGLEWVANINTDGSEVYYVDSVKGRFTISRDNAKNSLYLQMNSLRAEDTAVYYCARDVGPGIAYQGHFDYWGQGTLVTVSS VL: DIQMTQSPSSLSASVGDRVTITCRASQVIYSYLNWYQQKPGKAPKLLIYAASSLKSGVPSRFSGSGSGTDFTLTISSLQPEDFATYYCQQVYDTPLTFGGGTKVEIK", "kon", "6.8e+06"),
]

We next turn to a different binder, shown below.
Exercise: Provide measured kon value, entry: ADI-10161 Fab (Fab, V domains shown, Fab fragment; also called Ab16) VH: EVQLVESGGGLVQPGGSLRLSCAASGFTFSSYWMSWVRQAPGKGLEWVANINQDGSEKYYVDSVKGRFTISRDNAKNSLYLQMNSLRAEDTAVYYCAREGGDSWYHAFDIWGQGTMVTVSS VL: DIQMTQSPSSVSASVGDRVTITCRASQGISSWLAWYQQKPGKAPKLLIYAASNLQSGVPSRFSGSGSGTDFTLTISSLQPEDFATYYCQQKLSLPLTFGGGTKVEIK
Solution: 2.29e+06
